molecular target: JAK3 (Homo sapiens (Human), UniProt P52333); test: HTRF KinEASE-TK kinase assay, JAK3; assay type: biochemical; settings: read-out: % JAK3 Remaining activity vs DMSO (1 μM, 3 h)
Sequence (P52333 781-1124): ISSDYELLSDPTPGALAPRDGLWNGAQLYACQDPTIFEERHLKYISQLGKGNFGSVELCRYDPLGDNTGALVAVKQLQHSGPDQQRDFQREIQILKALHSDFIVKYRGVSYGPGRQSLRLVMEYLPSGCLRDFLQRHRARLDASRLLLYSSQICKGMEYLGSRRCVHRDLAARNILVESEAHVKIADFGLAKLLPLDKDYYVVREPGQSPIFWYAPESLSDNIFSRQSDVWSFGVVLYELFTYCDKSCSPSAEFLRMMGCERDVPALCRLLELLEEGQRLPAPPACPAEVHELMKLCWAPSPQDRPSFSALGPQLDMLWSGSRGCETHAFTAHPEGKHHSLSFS
Listed here are compounds together with their documented remaining activity at 1 µM.
Quantity kind: remaining activity at 1 µM

>>> df
                                    compound  experimental_value
 0  CN(CCn1nc(-c2ccc(Oc3ccccc3)cc2)c2c(N)ncnc21)C(=O)c1c(F)c(F)c(F)c(F)c1S(N)(=O)=O               > 90%
 1  COCCOc1ccc(Nc2ncc(F)c(Nc3cccc(NS(=O)(=O)c4c(F)c(F)c(F)c(F)c4OC(F)F)c3)n2)cc1               < 50%
 2  CS(=O)(=O)c1c(F)c(F)c(F)c(F)c1C(=O)Nc1cc2c(Nc3ccc(F)c(Cl)c3)ncnc2cc1O[C@H]1CCOC1           50 to 90%
 3  Nc1ncnc2c1c(-c1ccc(Oc3ccccc3)cc1)nn2CCNS(=O)(=O)c1c(F)c(F)c(F)c(F)c1C(F)F               > 90%
 4  COCCOc1ccc(Nc2ncc(F)c(NCCCNS(=O)(=O)c3c(F)c(F)c(F)c(F)c3CF)n2)cc1               < 50%
 5  CN(CCn1nc(-c2ccc(Oc3ccccc3)cc2)c2c(N)ncnc21)C(=O)c1c(F)c(F)c(F)c(F)c1S(C)(=O)=O               > 90%
 6  C[S+]([O-])c1c(F)c(F)c(F)c(F)c1C(=O)Nc1cc2c(Nc3ccc(F)c(Cl)c3)ncnc2cc1OC1CCOC1 (stereo not shown)               > 90%
 7  COCCOc1ccc(Nc2ncc(F)c(Nc3cccc(NC(=O)c4c(F)c(F)c(F)c(F)c4[S@+](C)[O-])c3)n2)cc1 (stereo in doubt)               > 90%
 8  COCCOc1ccc(Nc2ncc(F)c(Nc3cccc(NC(=O)c4c(F)c(F)c(F)c(F)c4S(C)(=O)=O)c3)n2)cc1               < 50%
 9  Nc1ncnc2c1c(-c1ccc(Oc3ccccc3)cc1)nn2CCNS(=O)(=O)c1c(F)c(F)c(F)c(F)c1OCF               > 90%
10  CS(=O)(=O)c1c(F)c(F)c(F)c(F)c1C(=O)N1CC(n2nc(-c3ccc(Oc4ccccc4)cc3)c3c(N)ncnc32)C1               < 50%
11  CN(C)S(=O)(=O)c1c(F)c(F)c(F)c(F)c1C(=O)N1CCC[C@@H](n2nc(-c3ccc(Oc4ccccc4)cc3)c3c(N)ncnc32)C1               > 90%
12  CS(=O)(=O)c1c(F)c(F)c(F)c(F)c1CNCCn1nc(-c2ccc(Oc3ccccc3)cc2)c2c(N)ncnc21               > 90%

----------
target: RIPK2 (Homo sapiens (Human), UniProt O43353); assay: In vitro RIPK2 inhibition; format: biochemical; settings: read-out: % RIPK2 Remaining activity vs DMSO (1 μM, 3 h)
Sequence (O43353 whole entry, species assumed): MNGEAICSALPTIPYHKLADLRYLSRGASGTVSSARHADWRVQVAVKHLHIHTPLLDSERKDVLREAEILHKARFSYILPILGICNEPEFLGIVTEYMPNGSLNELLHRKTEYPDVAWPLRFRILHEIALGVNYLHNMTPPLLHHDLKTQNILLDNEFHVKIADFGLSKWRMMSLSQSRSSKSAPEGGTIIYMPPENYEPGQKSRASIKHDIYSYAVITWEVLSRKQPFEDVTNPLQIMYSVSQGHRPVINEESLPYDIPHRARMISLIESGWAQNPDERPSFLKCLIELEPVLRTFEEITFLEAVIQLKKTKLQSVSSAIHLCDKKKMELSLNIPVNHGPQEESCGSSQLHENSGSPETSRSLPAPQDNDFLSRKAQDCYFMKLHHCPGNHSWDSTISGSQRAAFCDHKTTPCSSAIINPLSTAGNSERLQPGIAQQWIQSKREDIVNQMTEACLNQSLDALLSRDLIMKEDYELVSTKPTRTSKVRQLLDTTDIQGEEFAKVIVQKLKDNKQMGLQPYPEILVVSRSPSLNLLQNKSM
Quantity kind: remaining activity at 1 µM

In [3]: df
Out[3]:
                                   compound  experimental_value
0  Nc1ncnc2c1c(-c1ccc(Oc3ccccc3)cc1)nn2CCNC(=O)c1c(F)c(F)c(F)c(F)c1S(N)(=O)=O               > 90%
1  CN(CCn1nc(-c2ccc(Oc3ccccc3)cc2)c2c(N)ncnc21)C(=O)c1c(F)c(F)c(F)c(F)c1S(C)(=O)=O           50 to 90%
2  C[S+]([O-])c1c(F)c(F)c(F)c(F)c1C(=O)N1CCC[C@@H](n2nc(-c3ccc(Oc4ccccc4)cc3)c3c(N)ncnc32)C1 (stereo partly drawn)               > 90%
3  CN(C)S(=O)(=O)c1c(F)c(F)c(F)c(F)c1C(=O)N1CC(n2nc(-c3ccc(Oc4ccccc4)cc3)c3c(N)ncnc32)C1           50 to 90%
4  COCCOc1ccc(Nc2ncc(F)c(Nc3cccc(NC(=O)c4c(F)c(F)c(F)c(F)c4S(=O)(=O)N(C)C)c3)n2)cc1               < 50%
5  CS(=O)(=O)c1c(F)c(F)c(F)c(F)c1C(=O)N1CC(n2nc(-c3ccc(Oc4ccccc4)cc3)c3c(N)ncnc32)C1           50 to 90%
